Test system: SARS-CoV-2 (USA_WA1/2020)
Assay: microbe, parasite or virus in culture
Assay type: cell-based
Details: Severe acute respiratory syndrome coronavirus 2, Vero C1008; SARS-CoV-2 CPE assay, Vero E6 cells; efficacy; read-out: CPE % Efficacy
Counter-ions that a name gives are not always drawn.
Let's look at some compounds and their measured Emax.
observation type: Emax (%)

# compound, observation type, obs value
rows = [
    ("CN1CCC(=C2c3ccccc3C=Cc3ccccc32)CC1 [Cyproheptadine hydrochloride]", "Emax", 50),
    ("c1ccc(-c2cc(CCC3CCNCC3)c3ccccc3n2)cc1", "Emax", 33.3),
    ("Cc1cc(C2CCCCC2)n(O)c(=O)c1", "Emax", 63.4),
    ("COc1ccc(-c2csc(NC(=O)[C@H]3CCCCN3S(=O)(=O)c3ccc(C)cc3)n2)cc1", "Emax", 45.4),
    ("S=C(NCc1ccc2c(c1)OCO2)N1CCN(c2ncnc3c2oc2ccccc23)CC1", "Emax", 69.8),
]
